target-or-test-system: glycoprotein B (gB) of HSV-1 strain F on infected Vero cells (Herpes simplex virus type 1, strain F, UniProt P06436 30-903)
test-description: cell-based or functional assay
measure: concentration [nM] required for 100% neutralization of 100 TCID50
The reply should consist of the numeric value with the unit placed after it.

# example entries with known answers
humanized mAb h2c-V4 (antibody, V domains shown, also called hu2c-V4) VH: QVTLKESGPALVKPTQTLTLTCTFSGFSLSTSGMSVGWIRQPPGKALEWLAHIWWNNDKYYKPALKSRLTISKDTSKKQVFLTMTNMDPVDTATYYCARIYYGYRPYAMDYWGQGTLVTVSS VL: DVVMTQTPLSLPVTPGEPASISCRSSQSIVHSNGNTYLEWYLQKPGQSPQLLIYKVSNRFSGVPDRFSGSGSGTDFTLKISRVEAEDVGVYYCFQGSHVPWSFGQGTKVEIKR; 7.8 nM
humanized mAb h2c-V2 (antibody, V domains shown, also called hu2c-V2) VH: QVTLKESGPALVKPTQTLTLTCTFSGFSLSTSGMSVGWIRQPPGKALEWLAHIWWNNDKYYKPALKSRLTISKDTSKKQVVLTMTNMDPVDTATYYCARIYYGYRPYAMDYWGQGTLVTVSS VL: DIVMTQTPLSLPVTPGEPASISCRSSQSIVHSNGNTYLEWYLQKPGQSPQLLIYKVSNRFSGVPDRFSGSGSGTDFTLKISRVEAEDVGVYYCFQGSHVPWSFGQGTKVEIKR; 15.6 nM

From here, focus on the item given below.
## Input What concentration [nM] required for 100% neutralization of 100 TCID50 value was documented for this binder, humanized mAb h2c-V1 (antibody, V domains shown, also called hu2c-V1; mAb hu2c-V1) VH: QVTLKESGPALVKPTQTLTLTCTFSGFSLSTSGMSVGWIRQPPGKALEWLAHIWWNNDKYYKPALKSRLTISKDTSKNQVVLTMTNMDPVDTATYYCARIYYGYRPYAMDYWGQGTLVTVSS VL: DIVMTQTPLSLPVTPGEPASISCRSSQSIVHSNGNTYLEWYLQKPGQSPQLLIYKVSNRFSGVPDRFSGSGSGTDFTLKISRVEAEDVGVYYCFQGSHVPWSFGQGTKVEIKR ?
## Output 7.8 nM
